- System: SF-268
- EXPERIMENT: NCI tumour cell line growth inhibition, 48 h
Active and inactive are the calls of the source. No stated cut-off is given here; in the data, active = GI50 up to about 1.1 µM and inactive = higher.
Items are presented alongside their recorded GI50.

{"columns": ["COMPOUND", "SUBJECT_OF_TEST", "GI50"],
 "data": [
  ["Cc1cc(C)c(C(=O)O)c(SSc2cc(C)cc(C)c2C(=O)O)c1", "SF-268", "> 100 µM (inactive)"],
  ["CC1(C)CCc2c(ccc(C(=O)/C=C/c3ccc(O)cc3)c2O)O1", "SF-268", "12.9 µM (inactive)"],
  ["NCCc1ccc2oc3cc(=O)c4ccccc4c-3nc2c1", "SF-268", "3.85 µM (inactive)"],
  ["CC(NC(=N)N)C(=O)O (stereo unspecified)", "SF-268", "> 100 µM (inactive)"],
  ["COc1ccc(C(=O)C(c2ccc(OC)cc2)C2(O)C(=O)Nc3c(C)cc(Cl)cc32)cc1 (stereo unspecified)", "SF-268", "82.8 µM (inactive)"],
  ["COc1ccc2c(-c3ccc(O)cc3)c(Oc3ccccc3)c(=O)oc2c1", "SF-268", "> 32.9 µM (inactive)"]
]}

====

- System: MDA-MB-435
- EXPERIMENT: NCI tumour cell line growth inhibition, 48 h
Activity calls are given as the source filed them. No stated cut-off is given here; in the data, active = GI50 up to about 1.1 µM and inactive = higher.
Reported GI50 values follow for various compounds

{"columns": ["COMPOUND", "GI50"],
 "data": [
  ["O=C(/C=C/c1ccc(O)c(O)c1)c1cc(O)cc(O)c1", "6.59 µM (inactive)"],
  ["CN(C)CCCNc1c2c(nc3ccc(Cl)cc13)CCCC2", "14.9 µM (inactive)"],
  ["OC(CC(CC(O)(C(F)(F)F)C(F)(F)F)=NN=C(CC(O)(C(F)(F)F)C(F)(F)F)CC(O)(C(F)(F)F)C(F)(F)F)(C(F)(F)F)C(F)(F)F", "> 10 µM (inactive)"],
  ["O=C1/C(=N/c2ccccc2)Oc2cc(O)ccc21", "> 100 µM (inactive)"],
  ["O=C(O)c1cccc(CC(Br)C(=O)O)c1 (stereo not given)", "> 100 µM (inactive)"]
]}

====

- Test system: OVCAR-4
- EXPERIMENT: NCI tumour cell line growth inhibition, 48 h
The source made the active and inactive calls. Cut-off read from the data, not from the text of the source: active = GI50 up to about 1.1 µM and inactive = higher.
QUANTITY: GI50

{"columns": ["COMPOUND", "QUANTITY", "ASSAY_VALUE"],
 "data": [
  ["O=C1NC(=O)C(C(=O)C(=O)Nc2cccc(C(F)(F)F)c2)C(=O)N1", "GI50", "> 100 µM (inactive)"],
  ["CN(C)CCCNc1c2c(nc3ccc(Cl)cc13)CCCC2", "GI50", "15.3 µM (inactive)"],
  ["COC(=O)CCC1=NCC(C)(C)O1", "GI50", "> 10 µM (inactive)"],
  ["CC(=O)c1ccc2c(c1)CC1(C2)Cc2ccc3c(c2C1=O)CCC3 (stereo not drawn)", "GI50", "19.2 µM (inactive)"],
  ["COc1cc(C(=O)C/C(CCC(=O)Nc2ccc(Cl)cc2Cl)=N/NC(=O)C(=O)NN)ccc1O", "GI50", "> 100 µM (inactive)"],
  ["CCOc1cc(/C=N\\O)cc(/C=N/O)c1O", "GI50", "42.6 µM (inactive)"],
  ["CCN1c2ccccc2C(C(SC)S(=O)(=O)c2ccc(C)cc2)c2c1[nH]c(=O)n(C)c2=O (stereo not drawn)", "GI50", "> 100 µM (inactive)"],
  ["C=C1C(=O)O[C@H]2C1C[C@@H](O)[C@@]1(C)OC1CC[C@@]1(C)O[C@H]21 (stereo partly drawn)", "GI50", "13.9 µM (inactive)"],
  ["C#C[C@]1(O)CC[C@H]2[C@@H]3CCC4=C/C(=N/CCOC(=O)c5cccc6cc7ccccc7nc56)CC[C@@H]4[C@H]3CC[C@@]21C", "GI50", "26 µM (inactive)"],
  ["Cc1cc(C)nc(NS(=O)(=O)c2ccc(NC(=O)c3ccc(Cl)c4c(Nc5ccc(S(=O)(=O)Nc6cc(C)on6)cc5)c5ccccc5nc34)cc2)n1", "GI50", "16.7 µM (inactive)"],
  ["N#CC1=C(N)N(c2ccccc2)C(c2ccccc2)C1(C#N)C#N (stereo not drawn)", "GI50", "19.6 µM (inactive)"],
  ["CCN(CC)CCCC(C)Nc1cc(-c2ccccc2)nc2cc(OC)ccc12 (stereo not drawn)", "GI50", "4.88 µM (inactive)"],
  ["COc1ccc(C(=O)C(CC2C(=O)NC(=O)NC2=O)c2ccc(OC)cc2)cc1 (stereo not drawn)", "GI50", "> 100 µM (inactive)"],
  ["COC1OC(=O)[C@H]2O[N+]([O-])=C(C)[C@@H]12 (stereo partly drawn)", "GI50", "> 100 µM (inactive)"],
  ["C[C@]12CCC(=O)[C@@H](CCC3=CC(=O)C=CC3=O)[C@@H]1CCC2=O", "GI50", "17.2 µM (inactive)"],
  ["Cc1ccc(-c2cc(-c3ccc(Cl)cc3)nc(/N=C3\\C(=O)N(CN(C)C)c4ccccc43)n2)cc1", "GI50", "41.2 µM (inactive)"],
  ["CCOC(=O)/C(=C\\NCC(O)c1ccccc1)c1nc2ccccc2[nH]1 (stereo not drawn)", "GI50", "23.8 µM (inactive)"],
  ["CCCCCCCCCCCCCC(=O)CBr", "GI50", "14.2 µM (inactive)"],
  ["C=CCc1cc(OC)c(O)c(C(=O)/C=C/c2ccc(OC)c(OC)c2)c1", "GI50", "16.2 µM (inactive)"],
  ["COc1cccc(C2c3cc4c(cc3OC3COC(=O)C32)OCO4)c1OC (stereo not drawn)", "GI50", "64.6 µM (inactive)"],
  ["C/C(=C\\COc1ccc2ccc(=O)oc2c1)C1=CC(=O)C(C)(C)O1 [GEIPARVARIN]", "GI50", "3.08 µM (inactive)"],
  ["CCC/C(Cl)=N\\OC(=O)Nc1ccc(F)c([N+](=O)[O-])c1", "GI50", "15.6 µM (inactive)"],
  ["O=c1[nH]nc(-c2ccccc2)n1/N=C/c1ccc([N+](=O)[O-])o1", "GI50", "6.65 µM (inactive)"],
  ["O=C(NNc1ccnc2cc(Cl)ccc12)/C(=C\\c1ccccc1Cl)NC(=O)c1ccccc1", "GI50", "32.8 µM (inactive)"],
  ["NC(CCCCNC(=O)CNC(=O)OCc1ccccc1)C(=O)NC(CCCCNC(=O)CNC(=O)OCc1ccccc1)C(=O)NC(CCCCNC(=O)CNC(=O)OCc1ccccc1)C(=O)NC(CCCCNC(=O)CNC(=O)OCc1ccccc1)C(=O)NC(CCCCNC(=O)CNC(=O)OCc1ccccc1)C(=O)NC(CCCCNC(=O)CNC(=O)OCc1ccccc1)C(=O)O (stereo not drawn)", "GI50", "> 75 µM (inactive)"],
  ["C=C1C(=O)O[C@@H]2C[C@@H](C)[C@@H]3[C@@H](OC4OC(COC(C)=O)C(O)C(O)C4O)CC(=O)[C@@]3(C)C[C@H]12 (stereo partly drawn)", "GI50", "3.31 µM (inactive)"],
  ["OC(CC(O)(C(F)(F)F)C(F)(F)F)C(O)c1ccco1 (stereo not drawn)", "GI50", "> 10 µM (inactive)"],
  ["CN1C(=O)CN=C(c2ccccc2F)c2cc(N=C=S)ccc21", "GI50", "35.4 µM (inactive)"],
  ["Cc1c2ccncc2cc2c1[nH]c1ccccc12", "GI50", "6.12 µM (inactive)"],
  ["C=CCc1cc(-c2cc(CC=C)c(O)c(CN(CCCl)CCCl)c2)cc(CN(CCCl)CCCl)c1O", "GI50", "17.6 µM (inactive)"],
  ["O=c1[nH]c(=O)n(C2CC(O)C(CO)O2)cc1OCc1ccccc1 (stereo not drawn)", "GI50", "> 100 µM (inactive)"],
  ["N=C(CC(=O)Nc1ccccn1)c1ccccc1", "GI50", "> 100 µM (inactive)"],
  ["COc1ccc(C(=O)C(c2ccc(OC)cc2)C2(O)C(=O)Nc3c(C)cc(Cl)cc32)cc1 (stereo not drawn)", "GI50", "63.2 µM (inactive)"],
  ["O=c1c(-c2ccccc2)c(SCCCN2CCCCC2)n(-c2ccccc2)c(=S)n1-c1ccccc1", "GI50", "24 µM (inactive)"],
  ["CCOC(=O)c1sc(N/N=C2\\NC(=O)/C(=C/c3ccc([N+](=O)[O-])cc3)S2)nc1C", "GI50", "26.1 µM (inactive)"],
  ["COc1ccc2c(c1)CCc1c-2n(CCN2CCCCC2)c2ccc(OC)cc12", "GI50", "> 100 µM (inactive)"],
  ["O=C1/C(=N/c2ccccc2)Oc2cc(O)ccc21", "GI50", "> 100 µM (inactive)"],
  ["N#Cc1c(C#N)c(-c2ccco2)n(-c2ccccc2)c1N", "GI50", "> 100 µM (inactive)"]
]}
